Every entry's value here was drawn from patent US12516053B2.

Listing: GI50 of selected compounds
measuredOn: BA/F3-BCL-2 G101V cells (Homo sapiens, UniProt P10415, G101V, cells depend on it)
assayNotes: BA/F3 cell proliferation assay, Bcl-2 G101V
Format: cell-based, Murine
conditionLabel: 24 hrs treatment, 3% FBS, CellTiter-Glo, geometric mean of 3 experiments; read-out: Cellular proliferation assay (IC50, nM) Bcl-2 G101V; BaF3 cell
Protocol: BA/F3 cell Proliferation Assay: The cells were treated with a 10-point dilution series of compounds for 24 hrs. After the compound treatment, 30 μl of CellTiter-Glo reagent was added in each well. The effects on proliferation were determined using Cell TiterGlo reagent (Promega) according to the manufacturer's instructions. Luminescent signals were measured using PHERAstar FS plate reader (BMG Labtech). […]
readout: GI50 (nM)

1) CC(C)c1ccccc1[C@@H]1CCCN1C1CC2(CCN(c3ccc(C(=O)NS(=O)(=O)c4ccc(NCC5(F)CCOCC5)c([N+](=O)[O-])c4)c(N4CCCOc5nc6[nH]ccc6cc54)c3)CC2)C1 : 7.8
2) CC(C)c1ccccc1[C@@H]1CCCN1C1CC2(CCN(c3ccc(C(=O)NS(=O)(=O)c4ccc(NC[C@H]5CC[C@](C)(O)CC5)c([N+](=O)[O-])c4)c(N4C[C@@H](C)Oc5nc6[nH]ccc6cc54)c3)CC2)C1 : 8.9
3) [2H]C1([2H])CC2(CC(N3CCC[C@H]3c3ccccc3C(C)C)C2)CC([2H])([2H])N1c1ccc(C(=O)NS(=O)(=O)c2cc3c(c([N+](=O)[O-])c2)N[C@H](C[C@H]2CC[C@H](O)CC2)CO3)c(Oc2cnc3[nH]ccc3c2)c1 : 21.1
4) [2H]C1([2H])CCC([2H])(c2ccccc2C(C)C)N1C1CC2(CCN(c3ccc(C(=O)NS(=O)(=O)c4cc5c(c([N+](=O)[O-])c4)N[C@H](C[C@H]4CC[C@H](O)CC4)CO5)c(Oc4cnc5[nH]ccc5c4)c3)CC2)C1 (stereo partly shown) : 35.8
